- Tested on: HaCaT cells
- measurementDescription: Skin cell toxicity assay with HaCaT (alamarBlue)
- Format: cell-based, human
- assayConditions: human, HaCaT cells (keratinocytes), 24 h
Square brackets hold non-standard residues; d marks the D form. Peptide text beside a SMILES is read from it. N(4-F-Bzl)Gly = O=C(O)CNCc1ccc(F)cc1; Gly(N-(CH2)6NH2) = NCCCCCCNCC(=O)O; Gly(N-2-aminoethyl) = NCCNCC(=O)O; Nspe = C[C@H](NCC(=O)O)c1ccccc1; Nphe = O=C(O)CNCc1ccccc1; Nlys = NCCCCNCC(=O)O
Answer each item with its documented ED50 HaCaT.

Asked: Please report the recorded ED50 HaCaT for NCCNCC(=O)N(CC(=O)N(CC(=O)N(CCN)CC(=O)N(CC(=O)N(CC(=O)N(CCN)CC(=O)N(CC(=O)N(CC(=O)N(CCN)CC(=O)N(CC(=O)N(CC(N)=O)Cc1ccccc1)Cc1ccccc1)Cc1ccccc1)Cc1ccccc1)Cc1ccccc1)Cc1ccccc1)Cc1ccccc1)Cc1ccccc1 [Peptoid 7, (NaeNpheNphe)4] (H-[Gly(N-2-aminoethyl)][Nphe][Nphe][Gly(N-2-aminoethyl)][Nphe][Nphe][Gly(N-2-aminoethyl)][Nphe][Nphe][Gly(N-2-aminoethyl)][Nphe][Nphe]-NH2) .
Given back: >100 µM

Asked: Consider the molecule C[C@@H](c1ccccc1)N(CC(N)=O)C(=O)CN(C(=O)CN(CCCCCCN)C(=O)CN(C(=O)CN(C(=O)CNCCCCCCN)[C@@H](C)c1ccccc1)[C@@H](C)c1ccccc1)[C@@H](C)c1ccccc1 [Peptoid 12, (NahNspeNspe)2] and give its measured ED50 HaCaT.
Given back: >100 µM

Asked: Please report the recorded ED50 HaCaT for NCCCCCCNCC(=O)N(CC(=O)N(CC(=O)N(CCCCCCN)CC(=O)N(CC(=O)N(CC(=O)N(CCCCCCN)CC(=O)N(CC(=O)N(CC(=O)N(CCCCCCN)CC(=O)N(CC(=O)N(CC(N)=O)Cc1ccccc1)Cc1ccccc1)Cc1ccccc1)Cc1ccccc1)Cc1ccccc1)Cc1ccccc1)Cc1ccccc1)Cc1ccccc1 [Peptoid 1, (NahNpheNphe)4] (H-[Gly(N-(CH2)6NH2)][Nphe][Nphe][Gly(N-(CH2)6NH2)][Nphe][Nphe][Gly(N-(CH2)6NH2)][Nphe][Nphe][Gly(N-(CH2)6NH2)][Nphe][Nphe]-NH2) .
Given back: >100 µM

Asked: I'd like to know its ED50 HaCaT. The molecule in question is NCCCCNCC(=O)N(CC(=O)N(CC(=O)N(CCCCN)CC(=O)N(CC(=O)N(CC(=O)N(CCCCN)CC(=O)N(CC(=O)N(CC(N)=O)Cc1ccc(F)cc1)Cc1ccc(F)cc1)Cc1ccc(F)cc1)Cc1ccc(F)cc1)Cc1ccc(F)cc1)Cc1ccc(F)cc1 [Peptoid 23, (NLysNpfbNpfb)3] (H-[Nlys][N(4-F-Bzl)Gly][N(4-F-Bzl)Gly][Nlys][N(4-F-Bzl)Gly][N(4-F-Bzl)Gly][Nlys][N(4-F-Bzl)Gly][N(4-F-Bzl)Gly]-NH2)
Given back: >100 µM

Asked: Reported ED50 HaCaT, molecule C[C@@H](c1ccccc1)N(CC(N)=O)C(=O)CN(C(=O)CN(CCN)C(=O)CN(C(=O)CN(C(=O)CNCCN)[C@@H](C)c1ccccc1)[C@@H](C)c1ccccc1)[C@@H](C)c1ccccc1 [Peptoid 18, (NaeNspeNspe)2] : ____
Given back: >100 µM

Asked: // lookup ED50 HaCaT for NCCCCCCNCC(=O)N(CC(=O)N(CC(=O)N(CCCCCCN)CC(=O)N(CC(=O)N(CC(=O)N(CCCCCCN)CC(=O)N(CC(=O)N(CC(N)=O)Cc1ccccc1)Cc1ccccc1)Cc1ccccc1)Cc1ccccc1)Cc1ccccc1)Cc1ccccc1 [Peptoid 2, (NahNpheNphe)3] (H-[Gly(N-(CH2)6NH2)][Nphe][Nphe][Gly(N-(CH2)6NH2)][Nphe][Nphe][Gly(N-(CH2)6NH2)][Nphe][Nphe]-NH2)
Given back: >100 µM

Asked: Using the record for NCCNCC(=O)N(CC(=O)N(CC(=O)N(CCN)CC(=O)N(CC(=O)N(CC(N)=O)Cc1ccccc1)Cc1ccccc1)Cc1ccccc1)Cc1ccccc1 [Peptoid 9, (NaeNpheNphe)2] (H-[Gly(N-2-aminoethyl)][Nphe][Nphe][Gly(N-2-aminoethyl)][Nphe][Nphe]-NH2) , report its ED50 HaCaT.
Given back: >100 µM

Asked: Which measured ED50 HaCaT value corresponds to NCCCCNCC(=O)N(CC(=O)N(CC(=O)N(CCCCN)CC(=O)N(CC(=O)N(CC(N)=O)Cc1ccccc1)Cc1ccccc1)Cc1ccccc1)Cc1ccccc1 [Peptoid 6, (NLysNpheNphe)2] (H-[Nlys][Nphe][Nphe][Nlys][Nphe][Nphe]-NH2) ?
Given back: >100 µM

Asked: # get_value(readout='ED50 HaCaT', item= C[C@@H](c1ccccc1)N(CC(N)=O)C(=O)CN(C(=O)CN(CCCCN)C(=O)CN(C(=O)CN(C(=O)CNCCCCN)[C@@H](C)c1ccccc1)[C@@H](C)c1ccccc1)[C@@H](C)c1ccccc1 [Peptoid 15, (NLysNspeNspe)2] (H-[Nlys][Nspe][Nspe][Nlys][Nspe][Nspe]-NH2) )
Given back: >100 µM

###

- measurementDescription: Skin cell toxicity assay with HaCaT (alamarBlue)
- Format: cell-based, human
- assayConditions: human, HaCaT cells (keratinocytes), ED50 HaCaT
Square brackets hold non-standard residues; d marks the D form. Peptide text beside a SMILES is read from it. Gly(N-(CH2)6NH2) = NCCCCCCNCC(=O)O; Gly(N-2-aminoethyl) = NCCNCC(=O)O; Nspe = C[C@H](NCC(=O)O)c1ccccc1; NhArg = N=C(N)NCCCCNCC(=O)O; Nphe = O=C(O)CNCc1ccccc1; Nlys = NCCCCNCC(=O)O
Task for the reader: assign each of the following compounds its reported CC50 at 24 h.
Hi! Could you send only the number? It should be in µM, unit omitted.

Asked: Field request: CC50 at 24 h | item: C[C@@H](c1ccccc1)N(CC(N)=O)C(=O)CN(C(=O)CN(CCCCN)C(=O)CN(C(=O)CN(C(=O)CN(CCCCN)C(=O)CN(C(=O)CN(C(=O)CN(CCCCNC(=N)N)C(=O)CN(C(=O)CN(C(=O)CNCCCCN)[C@@H](C)c1ccccc1)[C@@H](C)c1ccccc1)[C@@H](C)c1ccccc1)[C@@H](C)c1ccccc1)[C@@H](C)c1ccccc1)[C@@H](C)c1ccccc1)[C@@H](C)c1ccccc1 [Peptoid 43] (H-[Nlys][Nspe][Nspe][NhArg][Nspe][Nspe][Nlys][Nspe][Nspe][Nlys][Nspe][Nspe]-NH2)
Given back: 33

Asked: Suppose we examine the compound C[C@@H](c1ccccc1)N(CC(N)=O)C(=O)CN(C(=O)CN(CCCCCCN)C(=O)CN(C(=O)CN(C(=O)CNCCCCCCN)[C@@H](C)c1ccccc1)[C@@H](C)c1ccccc1)[C@@H](C)c1ccccc1 [Peptoid 12, (NahNspeNspe)2] ; what CC50 at 24 h value has been reported?
Given back: 100

Asked: Fill blank: measured CC50 at 24 h of the compound NCCNCC(=O)N(CC(=O)N(CC(=O)N(CCN)CC(=O)N(CC(=O)N(CC(N)=O)Cc1ccccc1)Cc1ccccc1)Cc1ccccc1)Cc1ccccc1 [Peptoid 9, (NaeNpheNphe)2] (H-[Gly(N-2-aminoethyl)][Nphe][Nphe][Gly(N-2-aminoethyl)][Nphe][Nphe]-NH2) is ____.
Given back: 100

Asked: What CC50 at 24 h value was documented for this compound, CCCCCNCC(=O)N(CC(=O)N(CC(=O)N(CCCCC)CC(=O)N(CC(=O)N(CC(=O)N(CCCCN)CC(=O)N(CC(=O)N(CC(=O)N(CCCCN)CC(=O)N(CC(=O)N(CC(N)=O)[C@@H](C)c1ccccc1)[C@@H](C)c1ccccc1)[C@@H](C)c1ccccc1)[C@@H](C)c1ccccc1)[C@@H](C)c1ccccc1)[C@@H](C)c1ccccc1)[C@@H](C)c1ccccc1)[C@@H](C)c1ccccc1 [Peptoid 31, (NamyNspeNspe)2(NLysNspeNspe)2] ?
Given back: 20

Asked: Consider the compound shown here: C[C@@H](c1ccccc1)N(CC(N)=O)C(=O)CN(C(=O)CN(CCCCN)C(=O)CN(C(=O)CN(C(=O)CNCCCCN)[C@@H](C)c1ccccc1)[C@@H](C)c1ccccc1)[C@@H](C)c1ccccc1 [Peptoid 15, (NLysNspeNspe)2] (H-[Nlys][Nspe][Nspe][Nlys][Nspe][Nspe]-NH2) What is its recorded CC50 at 24 h?
Given back: 100

Asked: Bench note: what CC50 at 24 h did NCCCCCCNCC(=O)N(CC(=O)N(CC(=O)N(CCCCCCN)CC(=O)N(CC(=O)N(CC(N)=O)Cc1ccccc1)Cc1ccccc1)Cc1ccccc1)Cc1ccccc1 [Peptoid 3, (NahNpheNphe)2] (H-[Gly(N-(CH2)6NH2)][Nphe][Nphe][Gly(N-(CH2)6NH2)][Nphe][Nphe]-NH2) show?
Given back: 100

Asked: Param item = C[C@@H](c1ccccc1)N(CC(N)=O)C(=O)CN(C(=O)CN(CCCCCCN)C(=O)CN(C(=O)CN(C(=O)CN(CCCCCCN)C(=O)CN(C(=O)CN(C(=O)CNCCCCCCN)[C@@H](C)c1ccccc1)[C@@H](C)c1ccccc1)[C@@H](C)c1ccccc1)[C@@H](C)c1ccccc1)[C@@H](C)c1ccccc1 [Peptoid 11, (NahNspeNspe)3] (H-[Gly(N-(CH2)6NH2)][Nspe][Nspe][Gly(N-(CH2)6NH2)][Nspe][Nspe][Gly(N-(CH2)6NH2)][Nspe][Nspe]-NH2) ; retrieve measured CC50 at 24 h.
Given back: 100

Asked: Given NCCCCNCC(=O)N(CC(=O)N(CC(=O)N(CCCCN)CC(=O)N(CC(=O)N(CC(=O)N(CCCCN)CC(=O)N(CC(=O)N(CC(N)=O)Cc1cccc(F)c1)Cc1cccc(F)c1)Cc1cccc(F)c1)Cc1cccc(F)c1)Cc1cccc(F)c1)Cc1cccc(F)c1 [Peptoid 25, (NLysNmfbNmfb)3] , state its recorded CC50 at 24 h.
Given back: 64

Asked: What value of measured CC50 at 24 h is listed for CCCCCNCC(=O)N(CC(=O)N(CC(=O)N(CCCCN)CC(=O)N(CC(=O)N(CC(=O)N(CCCCN)CC(=O)N(CC(=O)N(CC(=O)N(CCCCN)CC(=O)N(CC(=O)N(CC(N)=O)[C@@H](C)c1ccccc1)[C@@H](C)c1ccccc1)[C@@H](C)c1ccccc1)[C@@H](C)c1ccccc1)[C@@H](C)c1ccccc1)[C@@H](C)c1ccccc1)[C@@H](C)c1ccccc1)[C@@H](C)c1ccccc1 [Peptoid 30, (NamyNspeNspe)[(NLysNspeNspe)]3] ?
Given back: 12

Asked: // returns reported CC50 at 24 h for input NCCNCC(=O)N(CC(=O)N(CC(=O)N(CCN)CC(=O)N(CC(=O)N(CC(=O)N(CCN)CC(=O)N(CC(=O)N(CC(N)=O)Cc1ccccc1)Cc1ccccc1)Cc1ccccc1)Cc1ccccc1)Cc1ccccc1)Cc1ccccc1 [Peptoid 8, (NaeNpheNphe)3] (H-[Gly(N-2-aminoethyl)][Nphe][Nphe][Gly(N-2-aminoethyl)][Nphe][Nphe][Gly(N-2-aminoethyl)][Nphe][Nphe]-NH2)
Given back: 100

Asked: Would you mind telling me what CC50 at 24 h value was observed for NCCNCC(=O)N(CC(=O)N(CC(=O)N(CCN)CC(=O)N(CC(=O)N(CC(=O)N(CCN)CC(=O)N(CC(=O)N(CC(=O)N(CCN)CC(=O)N(CC(=O)N(CC(N)=O)Cc1ccccc1)Cc1ccccc1)Cc1ccccc1)Cc1ccccc1)Cc1ccccc1)Cc1ccccc1)Cc1ccccc1)Cc1ccccc1 [Peptoid 7, (NaeNpheNphe)4] (H-[Gly(N-2-aminoethyl)][Nphe][Nphe][Gly(N-2-aminoethyl)][Nphe][Nphe][Gly(N-2-aminoethyl)][Nphe][Nphe][Gly(N-2-aminoethyl)][Nphe][Nphe]-NH2) ?
Given back: 100
